This collection of values is drawn from patent US20230286973A1.

# method summary: Liver Microsome Stability Assay (rat)
# condition set: rat liver microsomes, with NADPH, 1.0 uM compound
assay endpoint: Liver Microsome Stability (Multiple Species): Rat - % Remaining after 30 min w/NADPH (%)
Just the number in %, nothing appended.

1. CC(C)n1cnc(/C=C/c2csc(NC(=O)c3cccn3Cc3cc(F)nc(F)c3)n2)c1 ... 19.9
2. O=C(Nc1nc([C@H]2CCCN2c2ccccc2)cs1)c1cccn1CC1CCC(F)(F)CC1 ... 12.2

So, `O=C(Nc1nc(/C=C/c2cn(C3CCCCC3)cn2)cs1)c1cccn1Cc1ccnc(F)c1` ? Its Liver Microsome Stability (Multiple Species): Rat - % Remaining after 30 min w/NADPH was 0.3
